- tgt: Rho-associated protein kinase 1 (Homo sapiens)
- assaySetup: at 0.1 µM
In this section, each of the molecules is paired with its reported inhibition.
Express the result in % but write the number alone.

In the examples that follow, each entry is paired with its recorded inhibition.
COc1cc2ncnc(Nc3ccc4c(cnn4Cc4ccccc4)c3)c2cc1OC ... 2.33
CN(C)c1cc2c(Nc3ccc4c(cnn4Cc4ccccc4)c3)ncnc2cn1 ... 0.25
COc1cc2ncn(-c3cc(OCc4ccccc4S(C)(=O)=O)c(C#N)s3)c2cc1OC ... 3.62
CS(=O)(=O)CCNCc1nc(-c2ccc3ncnc(Nc4ccc(OCc5cccc(C(F)(F)F)c5)cc4)c3c2)cs1 ... -0.53

Lab note: next molecule to report on.
-- ask Given the entry CCS(=O)(=O)c1ccc(OC)c(Nc2ncc(-c3cccc(OC)c3)o2)c1 , report its measured inhibition.
-- reply 0.26

----------
- Test system: Epidermal growth factor receptor (Homo sapiens), P00533 [L858R,T790M]
- Sequence (P00533 whole entry T790M/L858R, looked up): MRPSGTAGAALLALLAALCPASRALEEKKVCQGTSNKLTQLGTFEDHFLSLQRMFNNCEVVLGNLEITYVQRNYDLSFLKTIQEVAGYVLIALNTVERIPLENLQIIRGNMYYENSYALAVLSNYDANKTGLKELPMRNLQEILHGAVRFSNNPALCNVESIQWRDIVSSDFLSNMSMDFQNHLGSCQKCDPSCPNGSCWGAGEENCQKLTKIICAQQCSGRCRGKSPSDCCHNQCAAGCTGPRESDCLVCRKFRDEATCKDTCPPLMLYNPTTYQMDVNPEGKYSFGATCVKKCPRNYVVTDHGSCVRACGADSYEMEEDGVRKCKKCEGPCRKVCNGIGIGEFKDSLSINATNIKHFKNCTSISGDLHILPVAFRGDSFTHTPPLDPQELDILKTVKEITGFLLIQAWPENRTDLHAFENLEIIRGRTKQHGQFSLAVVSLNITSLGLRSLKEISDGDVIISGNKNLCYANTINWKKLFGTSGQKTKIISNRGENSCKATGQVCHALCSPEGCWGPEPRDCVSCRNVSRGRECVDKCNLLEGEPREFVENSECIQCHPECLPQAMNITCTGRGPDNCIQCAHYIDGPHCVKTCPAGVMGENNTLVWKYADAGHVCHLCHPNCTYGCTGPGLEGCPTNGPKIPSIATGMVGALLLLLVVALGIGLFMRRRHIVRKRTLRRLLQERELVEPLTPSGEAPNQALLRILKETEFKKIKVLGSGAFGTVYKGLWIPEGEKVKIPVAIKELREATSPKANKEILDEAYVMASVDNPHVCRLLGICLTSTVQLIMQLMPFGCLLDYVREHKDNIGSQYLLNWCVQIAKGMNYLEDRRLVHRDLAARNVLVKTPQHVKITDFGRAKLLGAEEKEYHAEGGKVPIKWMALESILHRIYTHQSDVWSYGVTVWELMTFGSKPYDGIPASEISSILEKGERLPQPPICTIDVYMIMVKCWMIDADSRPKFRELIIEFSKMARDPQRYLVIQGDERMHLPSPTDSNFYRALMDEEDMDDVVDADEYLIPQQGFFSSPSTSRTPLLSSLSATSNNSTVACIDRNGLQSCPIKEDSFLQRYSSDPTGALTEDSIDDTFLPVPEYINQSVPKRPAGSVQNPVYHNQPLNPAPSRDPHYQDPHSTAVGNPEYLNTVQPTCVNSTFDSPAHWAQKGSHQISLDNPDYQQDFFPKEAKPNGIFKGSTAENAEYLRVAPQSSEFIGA
- assaySetup: at 1 µM
The entries below are paired with their reported inhibition.
Report the value in % with no unit label.

Recorded results for 8 compounds are shown here.
N#Cc1c(NC(=O)c2ccccc2F)sc2c1CCCC2 ... -0.34
Cc1ccc2c(-c3ccnc(Nc4ccc5c(c4)OCCO5)n3)c(-c3ccc(C(F)(F)F)cc3)nn2n1 ... 2.06
Cc1ccc2c(-c3ccnc(Nc4cccc(C(F)(F)F)c4)n3)c(-c3ccccc3)nn2n1 ... 87.6
Nc1nccc(-c2c(-c3ccc(F)cc3)ncn2CCCN2CCOCC2)n1 ... 0.56
COC(=O)c1cncc(/C=C/c2c(C)cc(O)cc2C)c1 ... 4.09
NC(=O)c1cccc(Nc2nccc(Nc3cccc(F)c3)n2)c1 ... 2.58
CS(=O)(=O)CCNCc1nc(-c2ccc3ncnc(Nc4ccc(OCc5cccc(C(F)(F)F)c5)cc4)c3c2)cs1 ... -3.57
c1ccc(Cc2nc3ccc(Nc4ncnc5ccccc45)cc3[nH]2)cc1 ... -0.39

-- ask Which inhibition value is on record for Cc1ccc(NC(=O)CC2CC2)cc1-c1ccc(C(=O)NCC2CC2)cc1 ?
-- reply 0.35

-- ask Subsequent entry: NC(=O)c1sc(-n2cnc3ccccc32)cc1OCc1ccccc1Br
-- reply 1.45

-- ask Next compound: NS(=O)(=O)c1ccc(Nc2cc(-c3cccc(O)c3)n[nH]2)cc1
-- reply 3.61

-- ask Try this compound next: FC(F)(F)c1ccc(-c2nn3ncccc3c2-c2ccnc(Nc3ccc4c(c3)OCCO4)n2)cc1
-- reply 10.3

-- ask Item: O=C1Nc2ccccc2/C1=C/Nc1ccc2[nH]c(=O)[nH]c2c1
-- reply 3.05

-- ask Now consider COc1cccc(-n2ncc3c(N/N=C/c4ccc(S(C)(=O)=O)cc4)ncnc32)c1 .
-- reply 5.78

-- ask Try this compound too: C[C@@H](Oc1cc(-n2cnc3ccc(OC[C@@H](O)CO)cc32)sc1C(N)=O)c1ccccc1Cl
-- reply -0.33

-- ask How about this compound: Cc1cc(O)cc(C)c1/C=C/c1cncc(C(=O)N(C)C)c1
-- reply -0.26

-- ask Can you check Nc1nccc(-c2c(-c3ccc(F)cc3)nn3cc(C(F)(F)F)ccc23)n1 next?
-- reply 1.18

-- ask Same again, this time with Cc1cc(-c2ccccn2)cc(C)c1/C=C/c1cncc(-c2nn[nH]n2)c1
-- reply 3.4

-- ask Item: NS(=O)(=O)c1ccc(-c2cc3ccncc3cc2OCc2ccccc2)cc1
-- reply 2.39

-- ask Same for CS(=O)(=O)Nc1cccc(-c2ccc3c(NC(=O)C4CC4)n[nH]c3c2)c1
-- reply -1.6

-- ask Can you handle NS(=O)(=O)c1cccc(-c2cc3ccncc3cc2OCc2ccccc2)c1 next?
-- reply 0.67

-- ask Okay, and Cc1ccc(C(=O)NC2CC2)cc1-c1ccc2[nH]ncc2c1 ?
-- reply -5.63

-- ask Request: COc1cc(Nc2nccc(-c3cnn4ncccc34)n2)cc(OC)c1
-- reply 15.8

-- ask Would you mind doing CCCN1CCCC(c2ccc(Nc3nc(Nc4cc(F)ccc4C(N)=O)c4cc[nH]c4n3)c(OC)c2)C1 (stereo not given) as well?
-- reply 85.6

-- ask Also, COc1cc2ncnc(Nc3ccc(C)c(O)c3)c2cc1OC please.
-- reply 13.5
